The measured values listed here are drawn from the supplement of paper PMC11865577.

- System: TO-N3 (biotin conjugate)
- Experiment notes: pull-down binding Z-score (relative to library population); higher = stronger binding
- Settings: RNA library: Library-2
Measured attribute: pull-down binding Z-score
Respond using a number only.

{"Residue sequence": "GUUCGGGGGUUCCGACGGCGAC [hsa-mir-6790]", "pull-down binding Z-score": 2.67}
{"Residue sequence": "CUUACUGUACACGUGGCUGGCAAG [hsa-mir-4428]", "pull-down binding Z-score": 0.588}
{"Residue sequence": "GUUAAAAAUCUGAAUUCUUCUAGAGUUCCUGAUCUUCUGGUCUAAAC", "pull-down binding Z-score": -0.527}
{"Residue sequence": "UGGCUUGCACCGUGACUCCCUCUCACCAAGCAAGUGUC [hsa-mir-4440]", "pull-down binding Z-score": 0.0846}
{"Residue sequence": "GAAAUACUUGUCACAUACAAUUGUUGUGAUGAUGAUUAUUUC", "pull-down binding Z-score": -1.39}
{"Residue sequence": "CAAAUCGCCUCUUCAAUGGAUUUG [hsa-mir-133a-1]", "pull-down binding Z-score": 0.0594}
{"Residue sequence": "UUCAGAGUCAAUAUAAUUUUCUAG [hsa-mir-29a]", "pull-down binding Z-score": 0.485}
{"Residue sequence": "UGAGGUACUUCCUUC [hsa-mir-1205]", "pull-down binding Z-score": 0.104}

q: Find pull-down binding Z-score (TO-N3 (biotin conjugate)) for the entry `UCCUUACAUGGA`
a: -0.321

q: GET /values?readout=pull-down binding Z-score&system=TO-N3 (biotin conjugate)&item= AAGAGGAGGUGGUUGUUUUCCUCCUCUU [hsa-mir-627]
a: 0.944

----------
Below, each entry is listed alongside its reported pull-down binding Z-score.
- Test system: TO-3-N3 (biotin conjugate)
- Experiment notes: pull-down binding Z-score (relative to library population); higher = stronger binding
- Settings: RNA library: Library-2
Number, no unit, nothing else.

{"Residue sequence": "CAGAGGGGCUGGCAGUACUGCUCUG [hsa-mir-4649]", "Measured attribute": "pull-down binding Z-score", "Data value": 0.999}
{"Residue sequence": "UGUCUUUCGAUCAAAACCUGGAUUAUCAAAUAGGAUACAUCUGCAGUGGGGUUUUCGGUGACAACCCGCGUCCCGAAGAUGGAACAGGCA", "Measured attribute": "pull-down binding Z-score", "Data value": -0.887}
{"Residue sequence": "GGAACCUAGUAAUAGGUUUCC [DMSMaPseq_invitro_SARS-CoV-2_Motif_479]", "Measured attribute": "pull-down binding Z-score", "Data value": 0.7}
{"Residue sequence": "AGCUGGGGCCGGGU [hsa-mir-4281]", "Measured attribute": "pull-down binding Z-score", "Data value": 1.37}
{"Residue sequence": "UCACAGUUGGUUUCUGACACGUGG [hsa-mir-4535]", "Measured attribute": "pull-down binding Z-score", "Data value": 0.237}
{"Residue sequence": "AAAGAGGUGUUUCUACUCCAU [hsa-mir-3690-1_3690-2]", "Measured attribute": "pull-down binding Z-score", "Data value": -0.497}
{"Residue sequence": "AGAAAGUGAAACACUAUUUUAGGUUUU [hsa-mir-4458]", "Measured attribute": "pull-down binding Z-score", "Data value": 0.0524}
{"Residue sequence": "GUUGUUUUUAGAUAACUAAAUCGACAAC [hsa-mir-7-1]", "Measured attribute": "pull-down binding Z-score", "Data value": 0.721}
{"Residue sequence": "UGUUCGUUUUGCUCAUGUCGAAUC [hsa-mir-487b]", "Measured attribute": "pull-down binding Z-score", "Data value": -0.794}
{"Residue sequence": "AGAAGCCCAGGUUCUGAAUCCCCU [hsa-mir-6734]", "Measured attribute": "pull-down binding Z-score", "Data value": 0.393}

q: For TO-3-N3 (biotin conjugate), provide pull-down binding Z-score of UCUCAAUCCAUUCAUAUUGAAA [hsa-mir-3662] please.
a: 0.563

q: Record UGACUCAGAUCU [hsa-mir-759] : what is its pull-down binding Z-score with TO-3-N3 (biotin conjugate)?
a: -0.321

q: Give recorded pull-down binding Z-score with TO-3-N3 (biotin conjugate) for the following sequence: GUGUUCACACAUAAUGUGUACACCAUGUGUGUACAC [hsa-mir-5692b]
a: 0.192
